# procedure.text: Brain and cerebrospinal fluid penetration test
# Format: in vivo, male SD rats
# measurement.parameters: male, Sprague-Dawley, plasma; 2 hours after oral administration (10 mg/kg), rat; read-out: plasma concentration
measured.attribute: concentration at 2 h

# input Consider the compound shown here: CC1NC(c2cnccn2)=NC1(c1ccc(F)cc1)c1ccc(F)cc1 (stereo not shown) What is its recorded concentration at 2 h?
# output 730 nM

====

Documented melting point across a set of molecules

These solved cases illustrate the format of a correct answer.
INSERT INTO results (molecule, result) VALUES
  ('N#Cc1cccc(C2=NC(c3ccccc3)(C3CCC3)CN2)c1 (stereo not drawn) [Example 5-46]', '117 to 118 °C'),
  ('Fc1ccc(C2(c3ccc(F)cc3)CNC(c3ccsc3)=N2)cc1 [Example 9-10]', '160 to 163 °C'),
  ('N#Cc1ccnc(C2=NC(c3ccc(F)cc3)(c3ccnc(F)c3)CN2)c1 (stereo not drawn) [Example 14-2]', '169 to 171 °C'),
  ('N#Cc1cccc(C2=NC(c3ccccc3)(C3CCCCC3)CN2)c1 (stereo not drawn) [Example 5-42]', '151 to 152 °C'),
  ('CS(=O)(=O)c1cccc(C2=NC(c3ccc(F)cc3)(c3ccc(F)cc3)CN2)c1 [Example 5-34]', '209 to 212 °C');

# input Return reported melting point; argument: Fc1ccc(C2(c3ccc(F)cc3)CNC(c3cccs3)=N2)cc1 [Example 9-7]
# output 156 to 160 °C

# input Could you share which melting point value was measured for Fc1ccc(C2(c3ccc(F)cc3)CNC(c3cccc(OC(F)(F)F)c3)=N2)cc1 [Example 9-4] ?
# output 114 to 117 °C

# input Which melting point reading was recorded for the molecule Cc1ccc(C2(c3ccccc3)CNC(c3cccc(C#N)c3)=N2)cc1 (stereo not drawn) [Example 5-11] ?
# output 179 to 180 °C

# input Recorded melting point of c1ccc(C2(c3ccccc3)CNC(c3cnccn3)=N2)cc1 [Example 5-31, 4,4-diphenyl-2-pyrazinyl-2-imidazoline] , please.
# output 183 to 184 °C

# input Please look up its melting point: Cc1cccc(C2=NC(c3ccc(F)cc3)(c3ccc(F)cc3)CN2)c1 [Example 9-6]
# output 148 to 149 °C

# input Which melting point is listed for O=[N+]([O-])c1cccc(C2=NC(c3ccc(F)cc3)(c3ccc(F)cc3)CN2)c1 [Example 5-13] ?
# output 156 to 158 °C

# input Find the recorded melting point belonging to CN(C)c1ccc(C2(c3ccccc3)CNC(c3cccc(C#N)c3)=N2)cc1 (stereo not drawn) [Example 5-27] and report it.
# output 210 to 213 °C

====

# experimental.system: human NPY Y5 receptor (Homo sapiens, UniProt Q15761)
# Construct: expressed in transfected cells; host or cells: COS-7, CHO and LM(tk-)
# Sequence (Q15761 whole entry): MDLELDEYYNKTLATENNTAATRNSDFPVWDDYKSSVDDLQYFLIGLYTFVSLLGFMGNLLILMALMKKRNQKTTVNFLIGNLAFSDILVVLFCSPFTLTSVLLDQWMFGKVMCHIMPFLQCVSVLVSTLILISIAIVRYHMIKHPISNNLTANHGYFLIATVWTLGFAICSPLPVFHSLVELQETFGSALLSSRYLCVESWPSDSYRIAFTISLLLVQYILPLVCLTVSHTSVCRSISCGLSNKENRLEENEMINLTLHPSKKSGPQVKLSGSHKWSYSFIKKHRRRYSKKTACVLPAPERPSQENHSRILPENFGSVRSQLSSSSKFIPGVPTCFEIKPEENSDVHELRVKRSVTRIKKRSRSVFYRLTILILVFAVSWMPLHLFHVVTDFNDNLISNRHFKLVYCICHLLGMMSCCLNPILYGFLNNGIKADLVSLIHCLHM
# procedure.text: NPY binding inhibition test ([125I] peptide YY binding to membranes of cells expressing NPY Y5 receptor)
# measurement.parameters: against specific [125I] peptide YY binding, 25° C., 2 hours; read-out: IC50, inhibitory activities on NPY receptor binding
measured.attribute: IC50
Enter the number, and then the unit.

# input GET /values?readout=IC50&item= N#Cc1cccc(C2=NC(c3cccc(F)c3)(c3cccc(F)c3)CN2)c1
# output 2.3 nM

Data provenance: patent US7482358B2
